// compounds with reported pIC50 on RORc (Homo sapiens), multi-publication
pIC50: −log10 of the molar value.
measurement_label: pIC50

molecule | target_or_test_system | bound_sign | assay_value
CCCn1nc(C)cc1CN(C)c1ncnc(NCc2ccc(CC(=O)O)cc2)c1F | RORc (Homo sapiens) | > | 5.70
Cc1cncnc1[C@@]12CC[C@@H](c3cc(-c4c(F)cccc4F)nnc31)C2(C)C | RORc (Homo sapiens) | = | 7.69
CC1(C)[C@H]2CC[C@]1(c1cncc(-c3nc([C@](C)(O)C(F)(F)F)co3)n1)c1nnc(-c3c(F)cccc3F)cc12 | RORc (Homo sapiens) | = | 7.80
CC(=O)N[C@H]1CCN(C(=O)[C@]23CC[C@H](c4cc(-c5c(F)cccc5F)nnc42)C3(C)C)C1 | RORc (Homo sapiens) | = | 5.57

====

pIC50: −log10 of the molar value.
Reported pIC50 on RORc (Homo sapiens) for assorted molecules, compiled from publications.
measurement_label: pIC50

molecule | assay_value
Cc1n[nH]c(C(=O)N2CCO[C@@H]([C@@]34CC[C@@H](c5cc(-c6c(F)cccc6F)nnc53)C4(C)C)C2)n1 | 7.89
C[C@H]1CC[C@@H](c2ccccc2)S(=O)(=O)N1Cc1cc(F)c([C@]2(O)CC[C@@H](n3cnnc3)CC2)cc1F | 7.89
CC1(C)[C@H]2CC[C@]1(c1cccc(-c3cc(CO)n[nH]3)n1)c1nnc(-c3c(F)cccc3F)cc12 | 8.80
CONC(=O)c1cccc([C@@]23CC[C@@H](c4cc(-c5c(F)cccc5F)nnc42)C3(C)C)n1 | 7.83
C[C@H](O)CNC(=O)N1CCC[C@H]([C@@]23CC[C@@H](c4cc(-c5c(F)cccc5F)nnc42)C3(C)C)C1 | 8.11
CC1(C)[C@H]2CC[C@]1(c1cc(C(=O)NCCO)ccn1)c1nnc(-c3c(F)cccc3F)cc12 | 7.02
C[C@H]1CC[C@H](c2ccccc2)S(=O)(=O)N1Cc1ccc(C2(C#N)CC(F)(F)C2)cc1F | 7.28
CC(C)CN(c1cccc(Cl)c1)S(=O)(=O)c1ccc(N2CCN(S(C)(=O)=O)CC2)cc1 | 6.90
C[C@H]1CC[C@H](c2ccccc2)S(=O)(=O)N1Cc1ccc([C@]2(C(N)=O)C[C@H](O)C2)cc1F | 7.43
CC1(C)[C@H]2CC[C@]1(c1cncc(Oc3cnccn3)n1)c1nnc(-c3c(F)cccc3F)cc12 | 7.80
CNS(=O)(=O)N1CCC[C@H]([C@@]23CC[C@@H](c4cc(-c5c(F)cccc5F)nnc42)C3(C)C)C1 | 7.92
C[C@H]1CC[C@H](c2ccccc2)S(=O)(=O)N1Cc1ccc(C2(/C(N)=N\O)CCOCC2)cc1F | 7.42
CC1(C)[C@H]2CC[C@]1(CNCCC#N)c1nnc(-c3c(F)cccc3F)cc12 | 6.23
CC1(C)[C@H]2CC[C@]1([C@H]1CCCN(C(=O)NCC3(O)COC3)C1)c1nnc(-c3c(F)cccc3F)cc12 (stereo in doubt) | 6.96

====

The entries that follow carry log10(IC50) values tested on RORc (Homo sapiens, UniProt P51449), drawn from several published reports.
measurement_label: log10(IC50) (log10 of the value in nM)

molecule | target_or_test_system | log10(IC50)
CC1(C)[C@H]2CC[C@]1(c1nc(-n3ccc(CO)n3)ncc1F)c1nnc(-c3c(F)cccc3F)cc12 | RORc (Homo sapiens, UniProt P51449) | 1.08
CNC(=O)c1ccnc([C@@]23CC[C@@H](c4cc(-c5c(F)cccc5F)nnc42)C3(C)C)n1 | RORc (Homo sapiens, UniProt P51449) | 1.77
CC[C@@H](O[C@@]12CC[C@@H](c3cc(-c4c(F)cccc4F)nnc31)C2(C)C)C(=O)NCCS(C)(=O)=O | RORc (Homo sapiens, UniProt P51449) | 1.79
C[C@H]1CC[C@H](c2ccccc2)S(=O)(=O)N1Cc1ccc(C2(CC#N)CCOCC2)cc1F | RORc (Homo sapiens, UniProt P51449) | 1.49
C[C@H](O)CNS(=O)(=O)c1cccc([C@@]23CC[C@@H](c4cc(-c5c(F)cccc5F)nnc42)C3(C)C)n1 | RORc (Homo sapiens, UniProt P51449) | 1.52
CC1(C)[C@H]2CC[C@]1(c1ccn(CCC#N)n1)c1nnc(-c3c(F)cccc3F)cc12 | RORc (Homo sapiens, UniProt P51449) | 2.79
CC1(C)[C@H]2CC[C@]1(c1cncc(-c3nc([C@H](O)C(F)(F)F)co3)n1)c1nnc(-c3c(F)cccc3F)cc12 | RORc (Homo sapiens, UniProt P51449) | 0.54
CC(C)(O)Cc1ccn(-c2nccc([C@@]34CC[C@@H](c5cc(-c6c(F)cccc6F)nnc53)C4(C)C)n2)n1 | RORc (Homo sapiens, UniProt P51449) | 0.98
Cc1cnn(C[C@]23CC[C@H](c4cc(-c5ccccc5F)nnc42)C3(C)C)c1 | RORc (Homo sapiens, UniProt P51449) | 2.43
Cc1n[nH]c(C)c1-c1ccc(CN(CC(C)C)S(=O)(=O)Cc2ccccc2)s1 | RORc (Homo sapiens, UniProt P51449) | 2.58
CC1(C)[C@H]2CC[C@]1(c1cncc(-c3ccc(OCC(N)=O)nc3)n1)c1nnc(-c3c(F)cccc3F)cc12 | RORc (Homo sapiens, UniProt P51449) | 0.91
C[C@H]1CC[C@H](c2ccccc2)S(=O)(=O)N1Cc1cc(F)c([C@@H](OC2COC2)C(N)=O)cc1F | RORc (Homo sapiens, UniProt P51449) | 1.49
CC1(C)[C@H]2CC[C@]1(n1cnnc1)c1nnc(-c3c(F)cccc3F)cc12 | RORc (Homo sapiens, UniProt P51449) | 3.18

====

The following molecules were reported with IC50 values on UniProt:P51449 in different studies.

molecule | target_or_test_system | IC50 [nM]
CC1(C)[C@H]2CC[C@]1(c1cnccn1)c1nnc(-c3c(F)cccc3F)cc12 | UniProt:P51449 | 90
CC1(C)[C@H]2CC[C@]1(c1ccnc(-n3cnc(CO)c3)n1)c1nnc(-c3c(F)cccc3F)cc12 | UniProt:P51449 | 6.7
CC1(C)[C@H]2CC[C@]1(c1cccc(-n3cnnc3)n1)c1nnc(-c3c(F)cccc3F)cc12 | UniProt:P51449 | 12.7
CC1(C)[C@H]2CC[C@]1(c1ccnc(-c3ccnc(C(N)=O)c3)n1)c1nnc(-c3c(F)cccc3F)cc12 | UniProt:P51449 | 9.2
C[C@H]1CC[C@H](c2ccccc2)S(=O)(=O)N1Cc1cc(F)c([C@]2(C(N)=O)C[C@@](C)(O)C2)cc1F | UniProt:P51449 | 199
C[C@H]1CCC(c2ccccc2)S(=O)(=O)N1Cc1ccc(C(=O)Nc2nc[nH]c2C#N)cc1 (single isomer, unassigned) | UniProt:P51449 | 2900
CC1(C)[C@H]2CC[C@]1(C(=O)Nc1ccccc1C#N)c1nnc(-c3ccccc3F)cc12 | UniProt:P51449 | 3380

====

Compiled from multiple publications: IC50 readings for RORc (Homo sapiens, UniProt P51449).

compound | readout_units | IC50
Cc1noc(C)c1COc1ccc(CN2[C@@H](C)CCC(c3ccccc3)S2(=O)=O)cc1 (some centres unmarked) | nM | 151
CC(C)(C#N)c1n[nH]c(-c2cccc([C@@]34CC[C@@H](c5cc(-c6c(F)cccc6F)nnc53)C4(C)C)n2)n1 | nM | 13
C[C@H]1CC[C@H](c2ccccc2)S(=O)(=O)N1Cc1ccc(C2(NCC(N)=O)CCOCC2)cc1F | nM | 3.2
Cc1ncc(-c2ccnc([C@@]34CC[C@@H](c5cc(-c6c(F)cccc6F)nnc53)C4(C)C)c2)o1 | nM | 13.4
CC1CCC(C2CCCCC2)S(=O)(=O)N1Cc1cc(F)c(N2CC3C(C2)C3n2cnnc2)cc1F (single isomer, unassigned) | nM | 43
CC1(C)[C@H]2CC[C@]1(c1cncc(C(=O)N3CC(CO)C3)n1)c1nnc(-c3c(F)cccc3F)cc12 | nM | 93.3
CC(=O)N1CCC(OCC(N)=O)(c2cc(F)c(CN3[C@@H](C)CC[C@H](c4ccccc4)S3(=O)=O)cc2F)CC1 | nM | 26
CC(C)CN(Cc1cc(-c2ccc(S(C)(=O)=O)cc2)cs1)S(=O)(=O)Cc1ccccc1 | nM | 278
CC1(C)[C@H]2CC[C@]1(c1cccc(-c3nc(CS(C)(=O)=O)n[nH]3)n1)c1nnc(-c3c(F)cccc3F)cc12 | nM | 12.7
Cc1cn(-c2nccc([C@@]34CC[C@@H](c5cc(-c6c(F)cccc6F)nnc53)C4(C)C)n2)cn1 | nM | 3.6
Cc1nc(-c2cncc([C@@]34CC[C@@H](c5cc(-c6c(F)cccc6F)nnc53)C4(C)C)n2)co1 | nM | 8.6
Cc1c[nH]nc1C1CN(C(=O)[C@]23CC[C@H](c4cc(-c5ccccc5F)nnc42)C3(C)C)C1 | nM | 2800
Cc1nnc(N(CCN(C)C)C[C@@]23CC[C@@H](c4cc(-c5c(F)cccc5F)nnc42)C3(C)C)o1 | nM | 3410
COC(=O)c1ccn(-c2nccc([C@@]34CC[C@@H](c5cc(-c6c(F)cccc6F)nnc53)C4(C)C)n2)n1 | nM | 4.9
